read-out: matrix metalloproteinase-3 (MMP3), MMP3 (gene 4314); assay: LTEA_HepaRG_MMP3: Life Technologies and Expression Analysis (LTEA) Assay for matrix metalloproteinase-3 (MMP3) using HepaRG (AID 2283519); settings: mRNA level, 48 h; actives raise or lower the signal
Active and inactive are the calls of the source. The calls were made as follows: active = hit-call score of the fitted dose curve at least 0.9, where 1 is the maximum; inactive = score below 0.9.
measured.parameter: outcome

{"columns": ["smiles", "meas.value"],
 "data": [
  ["O=C(N[C@H]1CN2CCC1CC2)c1ccc2c(c1)OCCO2", "inactive"],
  ["CCCCCCCCCCCCc1cccc(S(=O)(=O)O)c1", "inactive"],
  ["CN(C)C(=S)S", "inactive"],
  ["Oc1c(Cl)cc(Cl)cc1Cl", "inactive"],
  ["CC(C)O.CC(C)O.OCCN(CCO)CCO.OCCN(CCO)CCO.[Ti]", "inactive"],
  ["N#Cc1cccnc1", "inactive"],
  ["Clc1cccc(Cl)c1Cl", "inactive"],
  ["Oc1cc(Cl)c(Cl)cc1Cl", "inactive"]
]}

###

target: Aryl hydrocarbon receptor (Homo sapiens) (UniProt P35869); assay: ATG_Ahr_CIS: Attagene CIS-FACTORIAL HepG2 Assay for human Aryl Hydrocarbon Receptor (Ahr) (AID 2282930); settings: HepG2 AhR cis-factorial reporter transcription; actives raise or lower the signal
Sequence (P35869 whole entry, looked up): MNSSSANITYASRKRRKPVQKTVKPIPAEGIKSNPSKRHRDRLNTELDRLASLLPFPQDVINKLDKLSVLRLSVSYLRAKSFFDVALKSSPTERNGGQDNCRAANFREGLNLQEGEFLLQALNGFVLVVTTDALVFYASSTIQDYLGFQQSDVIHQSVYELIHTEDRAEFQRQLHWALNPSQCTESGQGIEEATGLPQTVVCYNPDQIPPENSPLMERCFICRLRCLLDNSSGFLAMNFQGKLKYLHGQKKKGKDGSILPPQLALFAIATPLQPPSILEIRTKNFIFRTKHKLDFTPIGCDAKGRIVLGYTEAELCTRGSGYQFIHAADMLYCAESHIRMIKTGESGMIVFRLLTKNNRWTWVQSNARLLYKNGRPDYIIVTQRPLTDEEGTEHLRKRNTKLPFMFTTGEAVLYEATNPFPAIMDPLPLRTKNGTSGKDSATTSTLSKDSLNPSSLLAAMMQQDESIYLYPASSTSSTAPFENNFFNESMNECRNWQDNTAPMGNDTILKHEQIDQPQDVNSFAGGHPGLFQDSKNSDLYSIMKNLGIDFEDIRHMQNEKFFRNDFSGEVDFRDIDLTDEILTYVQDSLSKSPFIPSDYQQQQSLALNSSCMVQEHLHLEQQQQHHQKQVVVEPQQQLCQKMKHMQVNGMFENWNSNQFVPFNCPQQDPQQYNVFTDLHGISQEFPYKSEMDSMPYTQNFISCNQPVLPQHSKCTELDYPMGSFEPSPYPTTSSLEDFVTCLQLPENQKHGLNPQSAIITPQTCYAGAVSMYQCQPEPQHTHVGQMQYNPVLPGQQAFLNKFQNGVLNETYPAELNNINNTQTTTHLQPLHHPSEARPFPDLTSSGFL
Active and inactive are the calls of the source. How the source made its calls: active means hit-call score of the fitted dose curve at least 0.9, where 1 is the maximum; inactive means score below 0.9.
Labels: active, inactive

{"columns": ["molecule", "discrete.label"],
 "data": [
  ["CN(C)CCN(C)C", "inactive"],
  ["O=NN1CCOCC1", "inactive"],
  ["Cl[C@H]1OCCO[C@@H]1Cl", "inactive"],
  ["N#CCC#N", "inactive"],
  ["C=CCCl", "inactive"],
  ["CCOC(=O)c1ccccc1S(=O)(=O)NC(=O)Nc1nc(Cl)cc(OC)n1", "inactive"],
  ["Cc1ccccc1OP(=O)(Oc1ccccc1C)Oc1ccccc1C", "inactive"],
  ["O=c1oc2ccccc2c(O)c1C(CC(O)c1ccc(-c2ccc(Br)cc2)cc1)c1ccccc1 (stereo not given)", "inactive"],
  ["C=CC(F)(C(F)(F)F)C(F)(F)C(F)(F)F (stereo not given)", "inactive"],
  ["O=NN1CCCCCC1", "inactive"],
  ["c1ccc(-c2cccc(-c3ccccc3)c2)cc1", "active"],
  ["C1CN2CCN1CC2", "inactive"],
  ["O=C(CCl)Nc1ccccc1", "inactive"],
  ["Oc1cccc(-c2ccccc2)c1", "inactive"],
  ["O=C(NC(=O)c1c(F)cccc1F)Nc1ccc(Cl)cc1", "active"]
]}

###

read-out: Interleukin-1 alpha (IL1a), IL1A (gene 3552); test: BSK_BE3C_IL1a: BioMAP Diversity Plus: BE3C Assay for Interleukin-1 alpha (IL1a) Biomarker Activity (AID 2283016); conditions: primary human bronchial epithelial cells; actives raise or lower the signal
Activity calls are given as the source filed them. How the source made its calls: active means hit-call score of the fitted dose curve at least 0.9, where 1 is the maximum; inactive means score below 0.9.
Labels: active, inactive

{"columns": ["compound", "discrete.label"],
 "data": [
  ["Nc1ccc(N)cc1", "inactive"],
  ["Cc1cc(C)cc(C)c1", "inactive"],
  ["N#CCCC(Br)(C#N)CBr (stereo not given)", "active"],
  ["CC(C)N(C(=O)CCl)c1ccccc1", "active"],
  ["CCOP(=S)(OCC)OP(=S)(OCC)OCC", "inactive"]
]}

###

read-out: Interleukin-8 (IL8), CXCL8 (gene 3576); assay: BSK_MyoF_IL8: BioMAP Diversity Plus: MyoF Assay for Interleukin-8 (IL8) Biomarker Activity (AID 2284261); details: primary human lung fibroblasts
Calls of active or inactive are those of the source. Rule for the calls: active = hit-call score of the fitted dose curve at least 0.9, where 1 is the maximum; inactive = score below 0.9.

{"columns": ["smiles", "outcome"],
 "data": [
  ["[Cl][Sn]([c]1ccccc1)([c]1ccccc1)[c]1ccccc1", "inactive"],
  ["NC(=O)CCl", "inactive"],
  ["COCC(=O)N(c1c(C)cccc1C)[C@H](C)C(=O)OC", "inactive"]
]}

###

experiment: ATG_BRE_CIS: Attagene CIS-FACTORIAL HepG2 Assay for human Bone Morphogenetic Protein (BMP) Response Element (BRE) (AID 2282933); conditions: HepG2 BMP response element reporter, Attagene transcription factor profiling; actives raise or lower the signal
Active and inactive are the calls of the source. Rule for the calls: active = hit-call score of the fitted dose curve at least 0.9, where 1 is the maximum; inactive = score below 0.9.
Labels: Yes (active), No (inactive)

{"columns": ["compound", "discrete.label"],
 "data": [
  ["CN(C)CCN(C)C", "No"],
  ["Cc1cc(C(C)(C)c2ccc(O)c(C)c2)ccc1O", "No"],
  ["CN(C)c1ccc(N=O)cc1", "No"],
  ["Cc1cc(Cl)ccc1OC(C)C(=O)O (centres undefined)", "No"],
  ["CCOP(=S)(OCC)OP(=S)(OCC)OCC", "No"],
  ["CCOP(=S)(OCC)SCSc1cc(Cl)ccc1Cl", "No"],
  ["Brc1ccc(Oc2c(Br)cc(Br)cc2Br)c(Br)c1", "No"],
  ["c1ccc2c(c1)Oc1ccccc1O2", "No"],
  ["COc1nn(C(=O)NS(=O)(=O)c2ccccc2OC(F)(F)F)c(=O)n1C", "No"],
  ["CCCSP(=S)(OCC)Oc1ccc(Cl)cc1Cl (centres undefined)", "No"],
  ["Nc1ccc(Br)cc1", "No"],
  ["[F][Sn]([c]1ccccc1)([c]1ccccc1)[c]1ccccc1", "No"],
  ["O=C(CCl)Nc1ccccc1", "Yes"],
  ["Clc1ccc(C(Cl)(Cl)Cl)cn1", "No"]
]}

###

assay: TOX21_p53_BLA_p3_viability: Viability Assessment in the Tox21 HCT-116 p53 Agonism Beta-lactamase Assay, Phase 3 (AID 2283593);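 also: cells exposed to compound for 16 h before reading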
Results filed as inconclusive are left out. Active and inactive are the calls of the source. The calls were made as follows: active = hit-call score of the fitted dose curve at least 0.9, where 1 is the maximum; inconclusive = response in the unintended direction; inactive = score below 0.9.
Labels: true = active, false = inactive

{"columns": ["compound", "discrete.label"],
 "data": [
  ["C=CC(=O)OCC(COC(=O)C=C)(COC(=O)C=C)COC(=O)C=C", "true"],
  ["c1ccc2c(c1)Oc1ccccc1O2", "false"],
  ["Cc1cc(C(F)(C(F)(F)F)C(F)(F)F)ccc1NC(=O)c1cccc(I)c1C(=O)NC(C)(C)CS(C)(=O)=O", "false"],
  ["O=S(=O)(c1ccc(Cl)cc1)c1cc(Cl)c(Cl)cc1Cl", "false"],
  ["CCCCN(CCCCO)N=O", "false"],
  ["CCOC(=O)C(SP(=S)(OC)OC)c1ccccc1 (stereo unspecified)", "false"],
  ["O=C(O)COc1ccc(Cl)cc1", "false"],
  ["O=C(NC(=O)c1c(F)cccc1F)Nc1cc(Cl)c(Oc2ncc(C(F)(F)F)cc2Cl)c(Cl)c1", "false"],
  ["Cc1cccc(C)c1NC(=O)CN1CCCC1=O", "false"],
  ["CC(C)[C@@H](Nc1ccc(C(F)(F)F)cc1Cl)C(=O)OC(C#N)c1cccc(Oc2ccccc2)c1 (stereo partly specified)", "false"],
  ["CC(C=O)Cc1ccc2c(c1)OCO2 (stereo unspecified)", "false"]
]}

###

assay: ATG_MRE_CIS: Attagene CIS-FACTORIAL HepG2 Assay for human Metal Responsive Element (MRE) (AID 2282954); conditions: HepG2 MRE cis-reporter transcription, Attagene multiplex; actives raise or lower the signal
Active and inactive are the calls of the source. How the source made its calls: active means hit-call score of the fitted dose curve at least 0.9, where 1 is the maximum; inactive means score below 0.9.

{"columns": ["compound", "AC50"],
 "data": [
  ["O=S(=O)(Oc1ccc(Cl)cc1)c1ccc(Cl)cc1", "53.3 µM (active)"],
  ["CCNc1nc(NCC)nc(SC)n1", "inactive"],
  ["N#Cc1ccccc1N", "inactive"],
  ["CCCCCCCCCCCCCl", "inactive"],
  ["CC(O)(CS(=O)(=O)c1ccc(F)cc1)C(=O)Nc1ccc(C#N)c(C(F)(F)F)c1 (configuration not stated)", "72.3 µM (active)"],
  ["CC(C)[C@H](C(=O)OC(C#N)c1cccc(Oc2ccccc2)c1)c1ccc(OC(F)F)cc1 (some centres not stated)", "inactive"],
  ["CCOP(=O)(OCC)OC(=CCl)c1ccc(Cl)cc1Cl", "inactive"]
]}

###

assay: ATG_AP_1_CIS: Attagene CIS-FACTORIAL HepG2 Assay for human Activator Protein 1 (AP-1) (AID 2282931); settings: HepG2 Attagene cis-factorial AP-1 reporter mRNA; actives raise or lower the signal
Calls of active or inactive are those of the source. The calls were made as follows: active = hit-call score of the fitted dose curve at least 0.9, where 1 is the maximum; inactive = score below 0.9.
measured.parameter: AC50

{"columns": ["compound", "measured.parameter", "meas.value"],
 "data": [
  ["O=C1C=CC(=O)c2ccccc21", "AC50", "inactive"],
  ["CCOP(=S)(OCC)O/N=C(\\C#N)c1ccccc1", "AC50", "42.3 µM (active)"],
  ["Cc1ccc(OP(=O)(Oc2ccc(C)cc2C)Oc2ccc(C)cc2C)c(C)c1", "AC50", "inactive"],
  ["CN(C)CCN(C)C", "AC50", "inactive"],
  ["O=C(NC(=O)c1c(F)cccc1F)Nc1cc(Cl)c(Oc2ncc(C(F)(F)F)cc2Cl)c(Cl)c1", "AC50", "inactive"],
  ["CC1(C)[C@H](/C=C2\\CCSC2=O)[C@@H]1C(=O)OCc1coc(Cc2ccccc2)c1", "AC50", "144 µM (active)"],
  ["OC[C@@H](O)[C@H]1O[C@@H]2O[C@H](C(Cl)(Cl)Cl)O[C@@H]2[C@H]1O", "AC50", "inactive"],
  ["CCOc1cc(C=O)ccc1O", "AC50", "inactive"],
  ["Brc1c(Br)c(Br)c(Oc2c(Br)c(Br)c(Br)c(Br)c2Br)c(Br)c1Br", "AC50", "inactive"],
  ["O=c1[nH]c(=O)n(Cl)c(=O)n1Cl", "AC50", "inactive"],
  ["O=C(O)COc1ccc(Cl)cc1", "AC50", "inactive"],
  ["ClCCCCl", "AC50", "inactive"],
  ["CC(C)(C)c1cc([N+](=O)[O-])cc(C(C)(C)C)c1O", "AC50", "0.948 µM (active)"],
  ["Cc1cc(Cl)ccc1O", "AC50", "inactive"],
  ["CC(c1ccc(O)cc1)c1ccc(O)cc1", "AC50", "inactive"],
  ["N#CCCC(Br)(C#N)CBr (configuration not stated)", "AC50", "inactive"],
  ["C=C(C)[C@@H]1CC=C(C=O)CC1", "AC50", "100 µM (active)"],
  ["COc1ccccc1N", "AC50", "inactive"],
  ["CCOP(=S)(OCC)SCSc1cc(Cl)ccc1Cl", "AC50", "inactive"],
  ["CC1(C)COP(Oc2ccccc2)OC1", "AC50", "inactive"],
  ["COc1ccc(N)cc1", "AC50", "inactive"],
  ["CC(F)(F)CC(F)(F)F", "AC50", "inactive"],
  ["CCCSP(=S)(OCC)Oc1ccc(SC)cc1 (configuration not stated)", "AC50", "inactive"],
  ["CC(C)(COCC1CO1)COCC1CO1 (configuration not stated)", "AC50", "inactive"],
  ["[Cl][Sn]([c]1ccccc1)([c]1ccccc1)[c]1ccccc1", "AC50", "inactive"],
  ["O=S1(=O)OC(c2cc(Br)c(O)c(Br)c2)(c2cc(Br)c(O)c(Br)c2)c2ccccc21", "AC50", "inactive"],
  ["CCOP(=O)(OCC)OC(=CCl)c1ccc(Cl)cc1Cl", "AC50", "inactive"],
  ["Clc1cccc(Cl)c1", "AC50", "inactive"],
  ["O=C(O)CC(O)(CC(=O)O)C(=O)O", "AC50", "inactive"],
  ["O=C(NC(=O)c1c(F)cccc1F)Nc1cc(Cl)c(F)c(Cl)c1F", "AC50", "inactive"],
  ["OC(c1ccc(Cl)cc1)(c1ccc(Cl)cc1)c1cccnc1", "AC50", "inactive"],
  ["CCN(CC)C(=O)C(Cl)=C(C)OP(=O)(OC)OC", "AC50", "inactive"],
  ["C=CC(=O)[O][Sn]([CH2]CCC)([CH2]CCC)[CH2]CCC", "AC50", "0.128 µM (active)"],
  ["CC(C)(c1ccc(O)c(-c2ccccc2)c1)c1ccc(O)c(-c2ccccc2)c1", "AC50", "inactive"],
  ["CCC[CH2][Sn]([CH2]CCC)([CH2]CCC)[CH2]CCC", "AC50", "7.55 µM (active)"],
  ["C=CCCl", "AC50", "inactive"],
  ["COCCl", "AC50", "inactive"],
  ["CC(C)(C)c1ccccc1O", "AC50", "75.5 µM (active)"],
  ["N#Cc1ccncc1", "AC50", "inactive"],
  ["Cc1ccc2nc3sc(=O)sc3nc2c1", "AC50", "inactive"],
  ["CCOC(=O)Cc1ccccc1", "AC50", "inactive"],
  ["O=C(CCl)Nc1ccccc1", "AC50", "inactive"],
  ["Cc1cccc(OP(=O)(Oc2cccc(C)c2)Oc2cccc(C)c2)c1", "AC50", "inactive"],
  ["CC(C)(C1CCC(O)CC1)C1CCC(O)CC1 (configuration not stated)", "AC50", "inactive"],
  ["C=CCOC(F)(C(F)(F)F)C(F)(F)F", "AC50", "inactive"],
  ["CCOC(=O)CC(=O)CCl", "AC50", "75.2 µM (active)"],
  ["N#Cc1ccccc1N", "AC50", "inactive"],
  ["OC(Cc1ccccc1Cl)(Cn1[nH]cnc1=S)C1(Cl)CC1 (configuration not stated)", "AC50", "53 µM (active)"],
  ["O=C(O)C1(c2ccc3c(c2)OC[C@H](Cc2ccc(-c4ccccc4)cc2)[C@H]3O)CCCC1", "AC50", "19.7 µM (active)"],
  ["BrCC(Br)c1ccccc1 (configuration not stated)", "AC50", "inactive"],
  ["CCCCCCCCCCBr", "AC50", "inactive"],
  ["BrCCCCBr", "AC50", "inactive"],
  ["CCCCOP(=O)(CCCC)OCCCC", "AC50", "inactive"],
  ["CC(C)CP(=S)(S)CC(C)C", "AC50", "inactive"],
  ["O=C1C[C@@H]2OCC=C3CN4CC[C@]56c7ccccc7N1[C@H]5[C@H]2[C@H]3C[C@H]46", "AC50", "inactive"],
  ["CC(C)(C)c1ccc(CCOc2ncnc3ccccc23)cc1", "AC50", "inactive"],
  ["Oc1c(Br)cc(Br)cc1Br", "AC50", "27.7 µM (active)"]
]}
